This collection of values is drawn from ChEMBL document CHEMBL5550184.

Task for the reader: assign each of the following molecules its reported AUC(0-inf).
# Assay Summary: AUCinfinity in Wistar Hannover rat at 10 mg/kg, po measured upto 48 hrs by LC-MS/MS analysis
# Format: ADME, organism-based
# Test Parameters: in vivo
Positions of bridges follow the written chain, without caps; N, C: chain ends. Non-standard residues stand in square brackets, D forms with d. Residues, ends and D or L forms follow the SMILES beside them. *: point of attachment. hPhe(3-Cl-4-CF3) = N[C@@H](CCc1ccc(C(F)(F)F)c(Cl)c1)C(=O)O; NMeGly(cPent) = CN[C@H](C(=O)O)C1CCCC1; NMeCha = CN[C@@H](CC1CCCCC1)C(=O)O; NMeD = CN[C@@H](CC(=O)O)C(=O)O; NMeL = CN[C@@H](CC(C)C)C(=O)O; Morpholide = C1CN(*)CCO1; NMeA = CN[C@@H](C)C(=O)O; Piperidide = C1CCN(*)CC1; Ac5c = NC1(C(=O)O)CCCC1; Aze = O=C(O)[C@@H]1CCN1; Sar = CNCC(=O)O
Give bare numbers, in ng·h/mL.

Molecule	Assay Metric	Meas Value
CC[C@H](C)[C@@H]1NC(=O)[C@H](CC(C)C)N(C)C(=O)C[C@@H](C(=O)N2CCCCC2)N(C)C(=O)[C@H](C2CCCC2)N(C)C(=O)C2(CCCC2)NC(=O)[C@@H]2CCCN2C(=O)[C@H](CCc2ccc(C(F)(F)F)c(Cl)c2)NC(=O)CN(C)C(=O)[C@H](CC2CCCCC2)N(C)C(=O)[C@@H]2CCN2C(=O)[C@H](C)N(C)C1=O ([NMeL]I[NMeA][Aze][NMeCha][Sar][hPhe(3-Cl-4-CF3)]P[Ac5c][NMeGly(cPent)][NMeD]-Piperidide; lactam N-11)	AUC(0-inf)	5770

Input line: Need AUC(0-inf), item CC[C@H](C)[C@@H]1NC(=O)[C@H](CC(C)C)N(C)C(=O)C[C@@H](C(=O)N2CCOCC2)N(C)C(=O)[C@H](C2CCCC2)N(C)C(=O)C2(CCCC2)NC(=O)[C@@H]2CCCN2C(=O)[C@H](CCc2ccc(C(F)(F)F)c(Cl)c2)NC(=O)CN(C)C(=O)[C@H](CC2CCCCC2)N(C)C(=O)[C@@H]2CCN2C(=O)[C@H](C)N(C)C1=O ([NMeL]I[NMeA][Aze][NMeCha][Sar][hPhe(3-Cl-4-CF3)]P[Ac5c][NMeGly(cPent)][NMeD]-Morpholide; lactam N-11)
Output line: 3520
